Tested on: fasted rats
Test: Gastric emptying in fasted rat model, standard method E
Assay type: in vivo
Conditions: dose 3 mg/kg, average where repeated
property name: Percent Increase in Gastric Emptying After Oral Administration (%)
Lab book: enter the figure in %, no units written.

These recorded examples may help you get a feel for the data.
compound: CC1CNC(C2CCCCC2)C(=O)N(C)C(C)C(=O)NC(Cc2ccc(O)cc2)C(=O)NCCCC2CCCCC2O1 (mixture of isomers)
recorded measurement: 28
--
compound: CC(C)CC1NC(=O)C(C)N(C)C(=O)C(C2CC2)NC(C)C(C)Oc2ccccc2CCCNC1=O (stereo not drawn)
recorded measurement: 21
--
compound: CC1CNC(C2CC2)C(=O)N(C)C(C)C(=O)NC(CC2CCCCC2)C(=O)NCCCC2CCCCC2O1 (mixture of isomers)
recorded measurement: 32

Task item: Recorded Percent Increase in Gastric Emptying After Oral Administration for C[C@@H]1C(=O)N[C@H](Cc2ccc(O)cc2)C(=O)NCCCc2ccc(F)cc2OCCN[C@@H](C2CC2)C(=O)N1C with fasted rats, please?
Reply: 5

Task item: Recorded Percent Increase in Gastric Emptying After Oral Administration for CC(C)C[C@H]1NC(=O)[C@@H](C)N(C)C(=O)[C@H](C2CCCCC2)NC[C@H]2CCc3cccc(c3O2)CCCNC1=O with fasted rats, please?
Reply: 27

Task item: Recorded Percent Increase in Gastric Emptying After Oral Administration for CC1NC(C2CC2)C(=O)N(C)C(C)C(=O)NC(Cc2ccc(O)cc2)C(=O)NCCCc2ccccc2OC1C (stereo not drawn) with fasted rats, please?
Reply: 20
